target: ProfilerPro Kinase Selectivity Assay Kit kinases (Homo sapiens); assay type: biochemical; conditions: SYK; 1 μM compound concentration
assay-readout: POC (Percent of control) SYK (POC)
Give bare numbers, in POC.

# example entries with known answers
{"molecule-smiles": "Cc1nc(N)nc(-c2cccnc2Nc2cccc3[nH]ccc23)n1", "POC (Percent of control) SYK [POC]": 96}
{"molecule-smiles": "COc1ccc(Nc2ncc(CN3CCN(C(C)=O)CC3)cc2-c2nc(C)nc3[nH]cnc23)cn1", "POC (Percent of control) SYK [POC]": 80}
{"molecule-smiles": "c1cnc(Nc2cccc3[nH]ccc23)c(-c2ncnc3[nH]cnc23)c1", "POC (Percent of control) SYK [POC]": 15}
{"molecule-smiles": "COc1ccc(Nc2ncc(Cc3ccc(S(C)(=O)=O)cc3)cc2-c2nc(C)nc3[nH]cnc23)cn1", "POC (Percent of control) SYK [POC]": 99}

Problem: State the recorded POC (Percent of control) SYK for this entry: Cc1cnc(Nc2cccc3[nH]ccc23)c(-c2nc(C)nc(N)n2)c1
Solution: 104

###

Please respond with reported pKi for every item in the list.
molecular target: UniProt P42336; settings: read-out: PI3Kα AlphaScreen ® Ki
Numbers only, as −log10 of the molar value.

# example entries with known answers
{"compound": "COc1cc(Nc2ncc(CN3CCN(S(C)(=O)=O)C[C@@H]3C)cc2-c2nc(C)nc(N)n2)cnc1Cl [Example 317]", "assay-readout": "pKi", "numeric-readout": 7.74}
{"compound": "c1cnc(Nc2cccc3[nH]ccc23)c(-c2ncnc3[nH]cnc23)c1 [Example 19]", "assay-readout": "pKi", "numeric-readout": 5.25}
{"compound": "CC(=O)Nc1ccc(Nc2ncc(CN3CCN(S(C)(=O)=O)CC3)cc2-c2nc(C)nc(N)n2)cc1 [Example 268]", "assay-readout": "pKi", "numeric-readout": 6.99}

Now look at this one.
Problem: State the recorded pKi for this entry: COc1ccc(Nc2ncc(Cc3ccc(S(C)(=O)=O)cc3)cc2-c2nc(C)nc3[nH]cnc23)cn1 [Example 103]
Solution: 8.70

###

target: PI3Kα (Homo sapiens (Human), UniProt P42336); conditions: read-out: PI3Kα AlphaScreen ® Ki
Sequence (P42336 whole entry): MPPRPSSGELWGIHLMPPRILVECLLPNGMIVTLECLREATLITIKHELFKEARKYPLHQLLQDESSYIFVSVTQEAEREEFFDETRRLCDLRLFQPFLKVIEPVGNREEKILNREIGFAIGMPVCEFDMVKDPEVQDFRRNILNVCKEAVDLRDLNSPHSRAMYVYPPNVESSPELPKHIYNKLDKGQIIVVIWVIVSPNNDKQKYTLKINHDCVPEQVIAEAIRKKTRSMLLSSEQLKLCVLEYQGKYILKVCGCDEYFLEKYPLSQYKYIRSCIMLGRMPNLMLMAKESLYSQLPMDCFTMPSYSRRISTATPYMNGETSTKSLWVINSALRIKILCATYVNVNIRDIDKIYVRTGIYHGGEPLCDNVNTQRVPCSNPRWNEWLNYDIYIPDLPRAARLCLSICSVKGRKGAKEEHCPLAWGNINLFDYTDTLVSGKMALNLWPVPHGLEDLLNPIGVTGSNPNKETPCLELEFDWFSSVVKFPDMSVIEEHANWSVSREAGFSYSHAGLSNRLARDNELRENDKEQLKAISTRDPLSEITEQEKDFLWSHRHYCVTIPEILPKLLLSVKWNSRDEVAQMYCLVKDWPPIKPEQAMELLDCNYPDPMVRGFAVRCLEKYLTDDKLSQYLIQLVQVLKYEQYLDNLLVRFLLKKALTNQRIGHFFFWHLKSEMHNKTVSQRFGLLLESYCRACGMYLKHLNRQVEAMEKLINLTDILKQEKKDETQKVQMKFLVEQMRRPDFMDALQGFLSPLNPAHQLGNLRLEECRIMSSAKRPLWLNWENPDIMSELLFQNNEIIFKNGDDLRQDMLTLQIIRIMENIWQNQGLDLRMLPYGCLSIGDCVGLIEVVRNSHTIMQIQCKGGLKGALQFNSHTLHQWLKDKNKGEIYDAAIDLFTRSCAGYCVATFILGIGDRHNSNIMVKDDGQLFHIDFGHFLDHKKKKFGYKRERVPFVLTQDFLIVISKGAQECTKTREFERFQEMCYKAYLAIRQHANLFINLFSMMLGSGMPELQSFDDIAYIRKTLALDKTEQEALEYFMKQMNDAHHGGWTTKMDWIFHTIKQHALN
Sequence (P27986 whole entry partner): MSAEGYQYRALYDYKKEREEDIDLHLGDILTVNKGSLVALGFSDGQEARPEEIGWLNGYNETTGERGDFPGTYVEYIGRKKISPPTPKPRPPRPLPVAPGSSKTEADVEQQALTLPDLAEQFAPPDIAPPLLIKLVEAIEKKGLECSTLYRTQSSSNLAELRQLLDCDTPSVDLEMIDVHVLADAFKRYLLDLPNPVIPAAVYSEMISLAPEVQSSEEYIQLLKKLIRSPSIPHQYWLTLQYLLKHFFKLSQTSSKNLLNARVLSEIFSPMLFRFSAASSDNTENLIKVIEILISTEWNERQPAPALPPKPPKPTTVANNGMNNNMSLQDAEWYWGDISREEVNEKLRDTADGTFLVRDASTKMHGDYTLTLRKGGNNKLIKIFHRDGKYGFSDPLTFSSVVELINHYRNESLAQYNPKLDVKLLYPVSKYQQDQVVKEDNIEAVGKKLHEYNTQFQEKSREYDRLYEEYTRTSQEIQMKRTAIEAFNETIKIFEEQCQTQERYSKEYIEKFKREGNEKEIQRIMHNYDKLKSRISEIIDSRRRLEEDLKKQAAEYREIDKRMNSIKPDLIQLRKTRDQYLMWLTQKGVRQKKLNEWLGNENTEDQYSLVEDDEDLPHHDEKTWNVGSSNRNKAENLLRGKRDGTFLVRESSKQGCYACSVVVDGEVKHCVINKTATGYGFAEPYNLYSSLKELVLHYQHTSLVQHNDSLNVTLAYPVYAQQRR
pKi: −log10 of the molar value.
// label = YES if pKi is not less than 7, otherwise NO

{"compound": "Cc1nc(-c2cc(Br)cnc2Nc2cccc3[nH]ncc23)c2nc[nH]c2n1 [Example 64]", "target-system": "PI3Kα (Homo sapiens (Human), UniProt P42336)", "label-class": "YES"}
{"compound": "Cc1nc(N)cc(-c2nccnc2Nc2cnc(Cl)c(NS(C)(=O)=O)c2)n1 [Example 307]", "target-system": "PI3Kα (Homo sapiens (Human), UniProt P42336)", "label-class": "NO"}

Problem: Threshold query (pKi >= 7) on COc1ncc(Nc2ncc(C3(O)CC3)cc2-c2nc(C)nc(N)n2)cc1F [Example 298]
Solution: YES

###

target: ProfilerPro Kinase Selectivity Assay Kit kinases (Homo sapiens, UniProt P48730); type: biochemical; settings: CK1 delta; 1 μM compound concentration
Lab note: compare POC (Percent of control) CK1 delta with 70 POC, writing true (1) if less and false (0) if equal or more.

{"molecule": "COc1ccc(Nc2ncccc2-c2ncnc3[nH]cnc23)cn1 [Example 20]", "label-class": "false (0)"}

Problem: State whether 70 POC exceeds POC (Percent of control) CK1 delta recorded for c1cnc(Nc2cccc3[nH]ncc23)c(-c2ncnc3[nH]cnc23)c1 [Example 18] .
Solution: true (1)

Problem: Cool, now Cc1nc(N)nc(-c2cc(CN3CCN(S(C)(=O)=O)CC3)cnc2Nc2cccc(O)c2)n1 [Example 30]
Solution: false (0)

Problem: Cool, now Cc1nc(N)cc(-c2cccnc2Nc2cccc3[nH]ncc23)n1 [Example 27]
Solution: true (1)
